- assayNotes: Half-life determination in human plasma (LC-MS)
- Type: in vitro ADME
- setupConditions: 37° C.
measurementLabel: half-life (h)
Write the number in h without appending the unit.

// solved cases for half-life follow
CC[C@@H]1NC(=O)[C@H](CCCCN)NC(=O)[C@@H](Cc2c[nH]c3ccccc23)NC(=O)[C@H](Cc2ccc(O)cc2)NC(=O)[C@@H](NC(=O)[C@@H](Cc2ccccc2)NC(=O)CN2CCN(CCNC(=O)COCCOCCNC(=O)COCCOCCNC(=O)COCCOCCNC(=O)COCCOCCNC(=O)CCC(=O)N[C@@H](CC3CCCCC3)C(=O)O[C@]3(CC)C(=O)OCc4c3cc3n(c4=O)Cc4cc5ccccc5nc4-3)CC2)CSSC[C@@H](C(=O)N[C@H](C(N)=O)[C@@H](C)O)NC1=O ... 4.7
CC[C@@H]1NC(=O)[C@H](CCCCN)NC(=O)[C@@H](Cc2c[nH]c3ccccc23)NC(=O)[C@H](Cc2ccc(O)cc2)NC(=O)[C@@H](NC(=O)[C@@H](Cc2ccccc2)NC(=O)CN2CCN(CCNC(=O)COCCOCCOCCNC(=O)COCCOCCOCCNC(=O)COCCOCCOCCNC(=O)CCC(=O)N[C@H](CC(=O)O)C(=O)O[C@]3(CC)C(=O)OCc4c3cc3n(c4=O)Cc4cc5ccccc5nc4-3)CC2)CSSC[C@@H](C(=O)N[C@H](C(N)=O)[C@@H](C)O)NC1=O ... 9.3

The reported value for CCCC[C@H](NC(=O)[C@H](CC(C)C)NC(=O)[C@H](Cc1c[nH]cn1)NC(=O)CCNC(=O)[C@@H](NC(=O)[C@H](C)NC(=O)[C@H](Cc1c[nH]c2ccccc12)NC(=O)[C@H](CCC(N)=O)NC(=O)CCCCCNC(=O)CN1CCN(CCNC(=O)COCCOCCNC(=O)COCCOCCNC(=O)COCCOCCNC(=O)COCCOCCNC(=O)CCC(=O)NCC(=O)O[C@]2(CC)C(=O)OCc3c2cc2n(c3=O)Cc3cc4ccccc4nc3-2)CC1)C(C)C)C(N)=O in terms of half-life is 3.2

According to the records, this compound CC[C@@H]1NC(=O)[C@H](CCCCN)NC(=O)[C@@H](Cc2c[nH]c3ccccc23)NC(=O)[C@H](Cc2ccc(O)cc2)NC(=O)[C@@H](NC(=O)[C@@H](Cc2ccccc2)NC(=O)CN2CCN(CCNC(=O)COCCOCCNC(=O)COCCOCCNC(=O)COCCOCCNC(=O)COCCOCCNC(=O)CCC(=O)N[C@H](C(=O)O[C@]3(CC)C(=O)OCc4c3cc3n(c4=O)Cc4cc5ccccc5nc4-3)C(C)C)CC2)CSSC[C@@H](C(=O)N[C@H](C(N)=O)[C@@H](C)O)NC1=O displays half-life of 0.4

Form field half-life, entry CC[C@@H]1NC(=O)[C@H](CCCCN)NC(=O)[C@@H](Cc2c[nH]c3ccccc23)NC(=O)[C@H](Cc2ccc(O)cc2)NC(=O)[C@@H](NC(=O)[C@@H](Cc2ccccc2)NC(=O)CN2CCN(CCNC(=O)COCCOCCNC(=O)COCCOCCNC(=O)COCCOCCNC(=O)COCCOCCNC(=O)CCC(=O)N[C@@H](CNC(=O)OCc3ccccc3)C(=O)O[C@]3(CC)C(=O)OCc4c3cc3n(c4=O)Cc4cc5ccccc5nc4-3)CC2)CSSC[C@@H](C(=O)N[C@H](C(N)=O)[C@@H](C)O)NC1=O : 0.7

In plain terms, CC[C@@H]1NC(=O)[C@H](CCCCN)NC(=O)[C@@H](Cc2c[nH]c3ccccc23)NC(=O)[C@H](Cc2ccc(O)cc2)NC(=O)[C@@H](NC(=O)[C@@H](Cc2ccccc2)NC(=O)CN2CCN(CCNC(=O)COCCOCCNC(=O)COCCOCCNC(=O)COCCOCCNC(=O)COCCOCCNC(=O)CCC(=O)N[C@@H](C)C(=O)O[C@]3(CC)C(=O)OCc4c3cc3n(c4=O)Cc4cc5ccccc5nc4-3)CC2)CSSC[C@@H](C(=O)N[C@H](C(N)=O)[C@@H](C)O)NC1=O has a documented half-life of 1.3
